measurement name: melting point

>>> reported_value("Cc1cc(C2=NOC(c3cc(Cl)cc(Cl)c3)(C(F)(F)F)C2)ccc1C(=O)NCO (configuration not stated)")
"69 to 73.5 °C"
>>> reported_value("CSc1ccc2nc(N)c(C(N)=O)cc2c1")
"229 to 242 °C"
>>> reported_value("O=C1N[C@H](Cc2cccc(OC(F)(F)C(F)F)c2)[C@H](c2ccnc(F)c2)O1 (racemic)")
"118 to 119 °C"
>>> reported_value("O=[N+]([O-])c1cnn(-c2c(Cl)cc(Cl)cc2Cl)c1Cl")
"78 to 84 °C"
>>> reported_value("Cc1ccccc1COC(C)(CO)CO")
"90 to 91 °C"
>>> reported_value("CCc1c(N)cccc1NC(=O)c1ccc(Br)cc1")
"169 to 170 °C"
>>> reported_value("Nc1c([N+](=O)[O-])cc(F)c(F)c1Cl")
"86 to 88 °C"
>>> reported_value("O=C1NC(=O)C(Cc2ccc(OCCc3cccc4ccccc34)cc2)S1 (configuration not stated)")
"121 to 122 °C"
>>> reported_value("N[C@@H](CO)C(=O)NC(=O)N(CCCl)N=O")
"117 to 120 °C"
>>> reported_value("CN1C2CC(OC(=O)Cc3ccccc3)CC1C(O)C2O (configuration not stated)")
"120 to 122 °C"
>>> reported_value("CCOC(=O)c1c(CN(CC)CC)nc2ccc(Cl)cc2c1-c1ccccc1")
"107 to 108 °C"
>>> reported_value("C=C1C(=O)OC2C1CCC(C)=CCCC1(C)OC21 (configuration not stated)")
"112 to 113 °C"
>>> reported_value("COC(=O)COc1ccc(NC(=O)/C=C/c2ccc(C#N)cc2)cc1")
"197 °C"
>>> reported_value("CSc1ccc(C(=N)Nc2ccc(C)c(C)c2)cc1")
"111 to 113 °C"
>>> reported_value("COC(=O)c1ccc(OCC(C)C)c([N+](=O)[O-])c1")
"77 °C"
>>> reported_value("COC(=O)c1ccc2c(c1)CN(C(=O)c1ccc(-c3ccccc3)cc1)C2")
"172 to 180 °C"
>>> reported_value("COc1c(OCc2ccccc2)ccc(C(=O)O)c1N")
"167 to 168 °C"
>>> reported_value("CN(C)CCCNC1c2ccccc2C(=O)N1c1ccc2ccc(Cl)nc2n1 (configuration not stated)")
"143 °C"
>>> reported_value("C=CCC1C(=O)N(Cc2ccccc2)c2ccccc2NC1C (configuration not stated)")
"81 to 83 °C"
>>> reported_value("Cn1cccc1-c1nc(-c2cccnc2)no1")
"108 to 109 °C"
>>> reported_value("CCCNC(=O)C(C)Cc1ccc2cccc(Cc3ccc(C(=O)NS(=O)(=O)c4ccccc4)cc3OC)c2c1 (configuration not stated)")
"214 to 218 °C"
>>> reported_value("CCOC(=O)c1c(SC)nc(-c2ccc(F)cc2)n(-c2ccc(SC)cc2)c1=O")
"166 to 169 °C"

* * *

Each entry below carries its recorded melting point.
measurement name: melting point

>>> reported_value("CCS(=O)(=O)c1cc(C(=O)NCC2CCCN2CC2CCCC2)c(OC)cc1N (centres undefined)")
"140 to 141 °C"
>>> reported_value("C=C(C)COc1ccc(C)c2c1C(=O)CC2")
"74.2 to 75.2 °C"
>>> reported_value("O=C(O)c1cc2cc(Cl)ccc2nc1N[C@@H](CC1CCCCC1)C(=O)O")
"160 to 168 °C"
>>> reported_value("CC(C)(O)C#Cc1cccc(Nc2nccc(-c3sc(N)nc3-c3ccccc3)n2)c1")
"262 to 263 °C"
>>> reported_value("CCCN(CCC)Sc1nc2ccccc2s1")
"57 to 59 °C"
>>> reported_value("COc1ccc(-c2cc(-c3ccc(-c4c(Cc5ccccc5)sc5ccccc45)c(Br)c3)ccc2OCC(=O)O)cc1OC")
"103 to 105 °C"
>>> reported_value("COc1cc2c(cc1OCc1ccccc1)C(c1ccccc1)=NCC2")
"134 to 137 °C"
>>> reported_value("COc1ccc(CCN(C)CCCC(C#N)(C(=O)OC(C)C)c2ccc(OC)c(OC)c2)cc1OC (centres undefined)")
"66 to 67 °C"
>>> reported_value("Cc1c(NC(=O)c2ccc(-c3ccc4c(c3)OCO4)cc2F)ccc2cc(CN3CCCC3)cnc12")
"181 to 182 °C"
